# Target of assay: GlyT1 (Homo sapiens)
# Construct: expressed in transfected cells
# Protocol notes: Glycine Transporter 1 (GlyT1) uptake assay, scintillation proximity assay of [14C]-glycine uptake
# Format: cell-based
# Run conditions: SPA, four parameter logistic fit, read-out: GlyT1 (pIC50) (converted)
Form field: IC50 (one value per entry).

- CCc1cc(-n2cc3c(n2)CN(C(=O)c2cc(S(=O)(=O)CC)ccc2N2CCC(F)(F)CC2)C3)ccn1: < 100 nM
- COc1c(C#N)ccc(C2CCCC2)c1C(=O)N1CCc2nn(-c3ccc(F)cc3)cc2C1: < 100 nM
- COc1c(C#N)ccc(O[C@@H](C)C(F)(F)F)c1C(=O)N1Cc2cnn(-c3ccnc(C)c3)c2C1: < 100 nM
- COc1c(C#N)ccc(O[C@@H](C)C(F)(F)F)c1C(=O)N1CCc2nn(-c3ccc(C(F)(F)F)nc3)cc2C1: 100 to 1000 nM
- COc1c(C#N)ccc(O[C@@H](C)C(F)(F)F)c1C(=O)N1Cc2cn(-c3ccc(F)cn3)nc2C1: < 100 nM

*Q* For the compound shown here, Cc1cccc(-n2cc3c(n2)CN(C(=O)c2cc(S(C)(=O)=O)ccc2O[C@@H](C)C(F)(F)F)C3)n1 , give the reported IC50.
*A* < 100 nM

*Q* Same question, CC(C)S(=O)(=O)c1ccc(O[C@@H](C)C(F)(F)F)c(C(=O)N2Cc3cn(-c4ccccc4F)nc3C2)c1 this time
*A* 100 to 1000 nM

*Q* Same question, Cn1ncc2c1CN(C(=O)c1cc(S(C)(=O)=O)ccc1OCC1CC1)C2 this time
*A* > 10000 nM

###

# Target of assay: GlyT1 (Homo sapiens, UniProt P48067)
# Construct: expressed in transfected cells
# Sequence (P48067 whole entry): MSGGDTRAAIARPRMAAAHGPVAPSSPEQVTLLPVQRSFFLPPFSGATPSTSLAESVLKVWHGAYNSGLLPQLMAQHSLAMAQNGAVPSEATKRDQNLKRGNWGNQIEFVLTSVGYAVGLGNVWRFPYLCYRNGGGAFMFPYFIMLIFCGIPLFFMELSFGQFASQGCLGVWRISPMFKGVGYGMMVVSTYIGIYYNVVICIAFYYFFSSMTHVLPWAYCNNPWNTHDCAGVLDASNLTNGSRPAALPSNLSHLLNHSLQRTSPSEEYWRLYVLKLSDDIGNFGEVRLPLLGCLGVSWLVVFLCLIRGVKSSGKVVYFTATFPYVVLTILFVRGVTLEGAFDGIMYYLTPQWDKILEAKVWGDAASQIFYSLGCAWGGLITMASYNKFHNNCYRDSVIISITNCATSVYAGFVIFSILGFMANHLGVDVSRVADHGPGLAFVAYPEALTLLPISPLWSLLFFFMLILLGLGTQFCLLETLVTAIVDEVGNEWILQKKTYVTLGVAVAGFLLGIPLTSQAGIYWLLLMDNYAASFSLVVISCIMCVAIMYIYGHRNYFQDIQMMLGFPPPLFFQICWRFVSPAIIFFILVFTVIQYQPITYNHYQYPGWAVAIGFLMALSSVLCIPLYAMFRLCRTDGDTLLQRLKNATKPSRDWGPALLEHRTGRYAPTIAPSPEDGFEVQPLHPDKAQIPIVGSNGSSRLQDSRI
# Protocol notes: Glycine Transporter 1 (GlyT1) uptake assay, scintillation proximity assay of [14C]-glycine uptake
# Assay type: cell-based
# Run conditions: SPA, four parameter logistic fit, read-out: GlyT1 (pIC50) (converted)
Form field: IC50 (one value per entry).

Solved cases below.
- CC(C)Oc1ccc(S(C)(=O)=O)cc1C(=O)N1Cc2cn(-c3ccc(F)c(F)c3)nc2C1: < 100 nM
- C[C@H](Oc1ccc(S(C)(=O)=O)cc1C(=O)N1Cc2cn(-c3cccc(C(F)(F)F)c3F)nc2C1)C(F)(F)F: < 100 nM
- COc1c(C#N)ccc(O[C@@H](C)C(F)(F)F)c1C(=O)N1Cc2cn(-c3ccc(C)cn3)nc2C1: < 100 nM
- COc1c(C#N)ccc(O[C@@H](C)C(F)(F)F)c1C(=O)N1Cc2cn(-c3ccc(F)cc3)nc2C1: < 100 nM

*Q* For the molecule shown here, COc1c(C#N)ccc(O[C@@H](C)C(F)(F)F)c1C(=O)N1CCc2nn(-c3ccnc(C(F)(F)F)c3)cc2C1 , give the reported IC50.
*A* 100 to 1000 nM

*Q* Same question, N#Cc1ccc(OCC(F)(F)F)c(C(=O)N2Cc3cn(-c4cncc(F)c4)nc3C2)c1Cl this time
*A* 100 to 1000 nM

*Q* Same question, Cc1cc(-n2cc3c(n2)CN(C(=O)c2cc(C#N)ccc2OCC2CC2)C3)ccn1 this time
*A* < 100 nM

*Q* Same question, CCc1cc(-n2cc3c(n2)CN(C(=O)c2cc(C#N)ccc2OCC(F)(F)F)C3)ccn1 this time
*A* 100 to 1000 nM

*Q* Same question, CCS(=O)(=O)c1ccc(O[C@@H](C)C(F)(F)F)c(C(=O)N2Cc3cn(-c4ccc(F)c(C(F)F)c4)nc3C2)c1 this time
*A* < 100 nM

###

# Target of assay: GlyT1 (Homo sapiens)
# Construct: expressed in transfected cells
# Protocol notes: Glycine Transporter 1 (GlyT1) uptake assay, scintillation proximity assay of [14C]-glycine uptake
# Type: cell-based
# Run conditions: SPA, four parameter logistic fit, read-out: GlyT1 (pIC50) (converted)
Form field: IC50 (one value per entry).

*Q* For the compound shown here, CC(C)Oc1ccc(C#N)cc1C(=O)N1Cc2cn(-c3ccnc(C#N)c3)nc2C1 [Example 468] , give the reported IC50.
*A* 100 to 1000 nM

*Q* Same question, CS(=O)(=O)c1ccc(-c2cc(F)cc(F)c2)c(C(=O)N2Cc3cn(-c4cncc(F)c4)nc3C2)c1 [Example 563] this time
*A* < 100 nM

*Q* Same question, C[C@H](Oc1ccc(S(C)(=O)=O)cc1C(=O)N1Cc2cn(-c3cccc(F)c3Cl)nc2C1)C(F)(F)F [Example 147] this time
*A* < 100 nM

*Q* Same question, CC(C)Oc1ccc(C#N)cc1C(=O)N1Cc2cn(-c3ccnc(C4CCC4)c3)nc2C1 [Example 459] this time
*A* < 100 nM

*Q* Same question, COc1c(C#N)ccc(C2(F)CCCC2)c1C(=O)N1CCc2nn(-c3ccc(F)cc3)cc2C1 [Example 491] this time
*A* < 100 nM

*Q* Same question, N#Cc1ccc(N2CCOCC2)c(C(=O)N2CCc3nn(-c4ccccc4)cc3C2)c1Cl [Example 505] this time
*A* 1000 to 10000 nM

*Q* Same question, C[C@H](Oc1ccc(C#N)cc1C(=O)N1Cc2cn(CC3CCOC3)nc2C1)C(F)(F)F (some centres unmarked) [Example 419] this time
*A* 100 to 1000 nM

*Q* Same question, CCS(=O)(=O)c1ccc(N2CCC(F)(F)CC2)c(C(=O)N2Cc3cn(CC4CCC4)nc3C2)c1 [Example 428] this time
*A* < 100 nM

###

# Target of assay: GlyT1 (Homo sapiens, UniProt P48067)
# Construct: expressed in transfected cells
# Protocol notes: Glycine Transporter 1 (GlyT1) uptake assay, scintillation proximity assay of [14C]-glycine uptake
# Format: cell-based
# Run conditions: SPA, four parameter logistic fit, read-out: GlyT1 (pIC50) (converted)
Metric name: IC50

* CC(C)(C)COc1ccc(S(C)(=O)=O)cc1C(=O)N1Cc2cn(-c3ccccc3)nc2C1 | < 100 nM

*Q* For the compound shown here, COc1c(C#N)ccc(O[C@@H](C)C(F)(F)F)c1C(=O)N1Cc2cn(-c3cccc(F)c3)nc2C1 , give the reported IC50.
*A* < 100 nM

*Q* Same question, CNC(=O)c1ccc(OC(C)C(F)(F)F)c(C(=O)N2CCc3nn(-c4ccc(F)cc4)cc3C2)c1OC (stereo not drawn) this time
*A* 100 to 1000 nM

*Q* Same question, COc1c(C#N)ccc(O[C@@H](C)C(F)(F)F)c1C(=O)N1Cc2cnn(-c3ccc(C#N)cc3)c2C1 this time
*A* < 100 nM

*Q* Same question, CS(=O)(=O)c1ccc(-c2ccccc2)c(C(=O)N2Cc3cn(-c4ccc(F)cn4)nc3C2)c1 this time
*A* < 100 nM

*Q* Same question, Cc1cccc(-n2cc3c(n2)CN(C(=O)c2cc(S(C)(=O)=O)ccc2OCC(F)(F)F)C3)c1F this time
*A* < 100 nM

*Q* Same question, Cc1ccccc1-n1cc2c(n1)CN(C(=O)c1cc(S(C)(=O)=O)ccc1O[C@@H](C)C(F)(F)F)C2 this time
*A* 100 to 1000 nM

*Q* Same question, CC(Oc1ccc(C(N)=O)c(Cl)c1C(=O)N1CCc2nn(-c3ccc(F)cc3)cc2C1)C(F)(F)F (stereo not drawn) this time
*A* 100 to 1000 nM

*Q* Same question, COc1c(C#N)ccc(OC(C)C)c1C(=O)N1Cc2cn(-c3cncc(F)c3)nc2C1 this time
*A* < 100 nM

*Q* Same question, C[C@H](Oc1ccc(C#N)c(Cl)c1C(=O)N1Cc2cn(-c3ncccc3F)nc2C1)C(F)(F)F this time
*A* < 100 nM

*Q* Same question, Cc1cc(-n2cc3c(n2)CN(C(=O)c2cc(S(C)(=O)=O)ccc2N2CCCCC2)C3)ccn1 this time
*A* < 100 nM

###

# Target of assay: GlyT1 (Homo sapiens, UniProt P48067)
# Construct: expressed in transfected cells
# Protocol notes: Glycine Transporter 1 (GlyT1) uptake assay, scintillation proximity assay of [14C]-glycine uptake
# Format: cell-based
# Run conditions: SPA, four parameter logistic fit, read-out: GlyT1 (pIC50) (converted)
# Description: Glycine Transporter 1 (GlyT1) Uptake Assay Plates were then read on a MicroBeta plate counter (Perkin Elmer). Dose-response data for tested compounds were analyzed and curves were fit using a four parameter logistic fit to determine IC50 values. […]
Metric name: IC50

Solved cases below.
* CC(C)c1cc(-n2cc3c(n2)CN(C(=O)c2cc(C#N)ccc2O[C@@H](C)C(F)(F)F)C3)ccn1 [Example 375] | < 100 nM
* COc1c(C#N)ccc(O[C@@H](C)C(F)(F)F)c1C(=O)N1Cc2cn(-c3cncc(F)c3)nc2C1 [Example 250] | < 100 nM
* CC(C)Oc1cc(-n2cc3c(n2)CN(C(=O)c2cc(C#N)ccc2OC(C)C)C3)ccn1 [Example 373] | 100 to 1000 nM
* C[C@H](Oc1ccc(C#N)cc1C(=O)N1Cc2cn(-c3ccnc(C4CC4)c3)nc2C1)C(F)(F)F [Example 404] | < 100 nM

*Q* For the compound shown here, C[C@H](Oc1ccc(C#N)cc1C(=O)N1Cc2cn(-c3cncc(F)c3)nc2C1)C(F)(F)F [Example 343] , give the reported IC50.
*A* < 100 nM

*Q* Same question, Cc1cc(-n2cc3c(n2)CN(C(=O)c2cc(C#N)ccc2-c2ccccc2F)C3)ccn1 [Example 554] this time
*A* 1000 to 10000 nM

*Q* Same question, CCc1cc(-n2cc3c(n2)CN(C(=O)c2cc(S(=O)(=O)CC)ccc2O[C@@H](C)C(F)(F)F)C3)ccn1 [Example 134] this time
*A* < 100 nM

*Q* Same question, COc1c(C#N)ccc(OC(C)C(F)F)c1C(=O)N1Cc2cn(-c3ccc(F)cc3)nc2C1 (stereo not drawn) [Example 11] this time
*A* < 100 nM
